assay: Acute oral toxicity in rats (LD50, Lichtfield and Wilcoxon); conditions: rat, in vivo, rats p.o. (table)

{"columns": ["Compound", "LD50"],
 "data": [
  ["CNc1cc(OC)cc2c1CC(C)O2 (stereo not shown) [Example 11]", "2800 mg/kg"]
]}
